# systemTested: human M2 receptor (Homo sapiens, UniProt P08172)
# Sequence (P08172 1-466): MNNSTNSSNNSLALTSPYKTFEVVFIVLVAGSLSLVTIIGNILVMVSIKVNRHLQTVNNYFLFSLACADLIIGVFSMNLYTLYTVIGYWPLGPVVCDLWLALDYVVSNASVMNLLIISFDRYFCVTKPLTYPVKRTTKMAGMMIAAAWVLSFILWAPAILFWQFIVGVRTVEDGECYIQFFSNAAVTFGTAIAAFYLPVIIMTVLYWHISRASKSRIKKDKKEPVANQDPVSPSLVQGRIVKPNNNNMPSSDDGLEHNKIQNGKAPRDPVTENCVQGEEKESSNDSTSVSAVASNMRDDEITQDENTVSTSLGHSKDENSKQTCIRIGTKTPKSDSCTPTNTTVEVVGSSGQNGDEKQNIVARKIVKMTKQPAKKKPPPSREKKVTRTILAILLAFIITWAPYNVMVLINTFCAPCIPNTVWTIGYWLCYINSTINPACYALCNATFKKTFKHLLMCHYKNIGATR
# conditionNotes: Receptor activity EC50, allosteric potency at EC20 acetylcholine; M2-GIRK1/4 reporter cells; in some cases mean of two or more determinations
observationType: EC50 (nM)

CCC(COC(F)(F)F)NC(=O)c1cn(-c2c(F)cc(F)cc2F)c2nc(N3CCNC3=O)ccc2c1=O (racemic) [Example 610] | 11
CC[C@H](NC(=O)c1cn(-c2c(F)cc(F)cc2Cl)c2nc(N3CC4CC4(O)C3)ccc2c1=O)C(F)(F)F (mixture of isomers) | 10

I = C[C@H]1CN(c2ccc3c(=O)c(C(=O)N[C@@H](C4CC4)C(F)(F)F)cn(-c4c(F)cc(F)cc4F)c3n2)C(=O)N1
II = O=C(NC(c1ccccc1Cl)C(F)(F)F)c1cn(-c2c(F)cc(F)cc2F)c2nc(N3C[C@@H](O)[C@H](O)C3)ccc2c1=O (single isomer, unassigned) [Example 562]
III = O=C(NC12CC(C1)C2)c1cn(-c2c(F)cc(F)cc2F)c2nc(N3CC(O)C4(CC4)C3)ccc2c1=O (racemic) [Example 626]
IV = CC(C)C(NC(=O)c1cn(-c2c(F)cc(F)cc2F)c2nc(N3C[C@@H](O)CC3=O)ccc2c1=O)C(C)C
IN: List items by EC50 in falling order. Hello, could you send the labels back in the order asked? Thank you.
OUT: III, I, II, IV

###

# systemTested: human M2 receptor (Homo sapiens, UniProt P08172)
# Sequence (P08172 1-466): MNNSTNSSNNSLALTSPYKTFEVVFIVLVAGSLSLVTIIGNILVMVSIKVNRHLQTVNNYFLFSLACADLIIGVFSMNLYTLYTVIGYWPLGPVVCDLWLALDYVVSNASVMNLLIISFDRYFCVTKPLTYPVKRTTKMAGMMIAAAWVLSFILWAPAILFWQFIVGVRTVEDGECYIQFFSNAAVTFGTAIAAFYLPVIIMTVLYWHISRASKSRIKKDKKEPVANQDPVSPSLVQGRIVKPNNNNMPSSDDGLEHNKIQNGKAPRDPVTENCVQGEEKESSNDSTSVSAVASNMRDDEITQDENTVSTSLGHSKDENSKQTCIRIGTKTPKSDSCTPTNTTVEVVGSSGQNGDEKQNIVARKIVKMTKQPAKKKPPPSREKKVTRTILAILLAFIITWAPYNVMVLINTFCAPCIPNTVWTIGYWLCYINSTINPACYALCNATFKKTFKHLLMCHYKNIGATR
# conditionNotes: read-out: Efficiency, boosting of the acetylcholine effect at EC20 acetylcholine concentration; M2-GIRK1/4 reporter cells
observationType: Emax (%)

C[C@H](NC(=O)c1cn(-c2c(F)cc(F)cc2Cl)c2nc(N3C[C@@H](O)CC3=O)ccc2c1=O)C(F)(F)F [Example 409] | 99.5
CC[C@H](NC(=O)c1cn(-c2c(F)cc(F)cc2F)c2nc(N(C)C[C@H](C)O)ccc2c1=O)C(F)(F)F [Example 497] | 92
COC(=O)N1CCN(c2ccc3c(=O)c(C(=O)N[C@H](C4CC4)C(F)(F)F)cn(-c4c(F)cc(F)cc4F)c3n2)CC1 [Example 594] | 100
O=C(NC(c1ccccc1Cl)C(F)(F)F)c1cn(-c2c(F)cc(F)cc2F)c2nc(N3C[C@@H](O)CC3=O)ccc2c1=O (single isomer, unassigned) [Example 533] | 100
CCN1CCCN(c2ccc3c(=O)c(C(=O)N[C@@H](C4CC4)C(F)(F)F)cn(-c4c(F)cc(F)cc4F)c3n2)C1=O [Example 539] | 86.5
O=C(N[C@@H](C1CC1)C(F)(F)F)c1cn(-c2c(F)cc(F)cc2F)c2nc(N3CC[C@@H](O)[C@H](O)C3)ccc2c1=O (single isomer, unassigned) [Example 616] | 90.5

###

# systemTested: human M2 receptor (Homo sapiens, UniProt P08172)
# Sequence (P08172 1-466): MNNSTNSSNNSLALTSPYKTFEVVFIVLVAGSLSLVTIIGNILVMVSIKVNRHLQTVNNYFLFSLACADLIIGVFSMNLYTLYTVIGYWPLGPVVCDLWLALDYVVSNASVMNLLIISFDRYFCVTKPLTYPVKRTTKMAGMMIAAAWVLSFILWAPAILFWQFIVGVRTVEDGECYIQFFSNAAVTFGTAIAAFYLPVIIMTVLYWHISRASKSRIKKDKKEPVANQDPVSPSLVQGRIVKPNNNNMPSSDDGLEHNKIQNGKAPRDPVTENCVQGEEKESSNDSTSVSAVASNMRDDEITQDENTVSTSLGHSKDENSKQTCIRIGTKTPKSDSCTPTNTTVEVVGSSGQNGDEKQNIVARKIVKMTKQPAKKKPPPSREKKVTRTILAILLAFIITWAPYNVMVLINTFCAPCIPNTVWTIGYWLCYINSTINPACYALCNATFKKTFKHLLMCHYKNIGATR
# conditionNotes: Receptor activity EC50, M2-GIRK1/4 activation test, acetylcholine at EC20; allosteric potency; in some cases mean values from two or more determinations
observationType: EC50 (nM)

O=C(NC(C(F)(F)F)C(F)(F)F)c1cn(-c2ccc(F)cc2F)c2nc(N3CC[C@H](F)C3)ccc2c1=O [Example 70] | 76
O=C(NC12CC3CC(CC(C3)C1)C2)c1cn(-c2ccc(F)cc2F)c2nc(NCCF)ccc2c1=O [Example 83] | 110

P = Cc1cccc(C(NC(=O)c2cn(-c3ccc(F)cc3F)c3nc(N(C)C)ccc3c2=O)C(F)(F)F)c1 (racemic) [Example 138]
Q = O=C(N[C@@H](C1CC1)C(F)(F)F)c1cn(-c2c(F)cc(F)cc2F)c2nc(N3CCNC3=O)ccc2c1=O [Example 323]
IN: Select one. Lower EC50: P or Q I would appreciate it if you answered with the label of your choice.
OUT: Q

###

# systemTested: human M2 receptor (Homo sapiens)
# Sequence (P08172 1-466): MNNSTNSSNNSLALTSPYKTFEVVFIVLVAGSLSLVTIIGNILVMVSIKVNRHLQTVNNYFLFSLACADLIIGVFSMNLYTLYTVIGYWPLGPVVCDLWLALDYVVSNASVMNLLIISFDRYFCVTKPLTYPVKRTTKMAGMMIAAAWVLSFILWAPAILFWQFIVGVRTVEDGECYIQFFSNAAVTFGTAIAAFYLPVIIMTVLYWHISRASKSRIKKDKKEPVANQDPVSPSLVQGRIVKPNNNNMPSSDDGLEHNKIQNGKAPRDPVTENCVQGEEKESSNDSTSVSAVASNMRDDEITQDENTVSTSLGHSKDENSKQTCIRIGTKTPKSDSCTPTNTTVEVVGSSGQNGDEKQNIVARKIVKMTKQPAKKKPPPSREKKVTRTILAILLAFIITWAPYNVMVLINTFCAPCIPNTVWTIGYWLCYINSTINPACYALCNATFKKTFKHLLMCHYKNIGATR
# conditionNotes: boosting of the acetylcholine effect at EC20 acetylcholine concentration; M2-GIRK1/4 reporter cells
observationType: Efficiency (%)

O=C(NC(c1ccccc1Cl)C(F)(F)F)c1cn(-c2c(F)cc(F)cc2F)c2nc(N3C[C@@H](O)[C@H](O)C3)ccc2c1=O (single isomer, unassigned) | 100.0
CC[C@@H](NC(=O)c1cn(-c2ccc(F)cc2F)c2nc(N3C(=O)CCC3C)ccc2c1=O)C(F)(F)F (single isomer, unassigned) | 86.0
O=C(NC(c1ccccc1Cl)C(F)(F)F)c1cn(-c2c(F)cc(F)cc2F)c2nc(N3C[C@@H](O)CC3=O)ccc2c1=O (single isomer, unassigned) | 100.0
CC[C@H](NC(=O)c1cn(-c2c(F)cc(F)cc2Cl)c2nc(N3C[C@@H](O)CC3=O)ccc2c1=O)C(F)(F)F (single isomer, unassigned) | 100.0
CCC(COC(F)(F)F)NC(=O)c1cn(-c2c(F)cc(F)cc2F)c2nc(N3C[C@@H](O)CC3=O)ccc2c1=O (single isomer, unassigned) | 98.0
CC[C@@H](NC(=O)c1cn(-c2ccc(F)cc2F)c2nc(N3CC(C)NC3=O)ccc2c1=O)C(F)(F)F (single isomer, unassigned) | 100.0
CC[C@H](NC(=O)c1cn(-c2c(F)cc(F)cc2Cl)c2nc(N3CCC(C)C3=O)ccc2c1=O)C(F)(F)F (single isomer, unassigned) [Example 424] | 99.0
O=C(NC(CC(F)(F)F)C1CC1)c1cn(-c2c(F)cc(F)cc2F)c2nc(N3C[C@@H](O)[C@H](O)C3)ccc2c1=O (single isomer, unassigned) | 98.5
CC(C)(CC(F)(F)F)NC(=O)c1cn(-c2c(F)cc(F)cc2F)c2nc(N3CC(O)C4(CC4)C3)ccc2c1=O (racemic) | 94.0
CCC(COC(F)(F)F)NC(=O)c1cn(-c2c(F)cc(F)cc2F)c2nc(N3CCNC3=O)ccc2c1=O (racemic) [Example 610] | 100.0
CC[C@H](NC(=O)c1cn(-c2c(F)cc(F)cc2Cl)c2nc(N3C[C@@H](O)[C@H](O)C3)ccc2c1=O)C(F)(F)F (single isomer, unassigned) | 100.0

This collection of values is drawn from patent US20190367516A1.
